Reference source: paper PMC3375153

substrate: O=[N+]([O-])c1ccc(OP(=O)(O)O)cc1; test: chromogenic phosphatase assay, A400; format: biochemical, Thermosynechococcus vestitus; details: 50 mM Tris-HCl pH 8.3, 50 mM NaCl, 1 mM DTT, 2 mM MnCl2, 30 °C, pNPP 0.1-10 mM
Assay Endpoint: kcat/Km (M⁻¹ s⁻¹)
One number for each entry, in M⁻¹ s⁻¹.

# map each protein to its kcat/Km
1. tPphA (Thermosynechococcus vestitus BP-1) (protein) MDVAGLTDCGLIRKSNQDAFYIDEKHQRFFIVADGMGGHAGGEEASRLAVDHIRQYLETHLEDLQHDPVTLLRQAFLAANHAIVEQQRQNSARADMGTTAVVILLDEKGDRAWCAHVGDSRIYRWRKDQLQQITSDHTWIAQAVQLGSLTIEQARQHPWRHVLSQCLGREDLSQIDIQPIDLEPGDRLLLCSDGLTEELTDDVISIYLSEPNVQKAAAALVDAAKTHGGRDNVTVVVISV
2. tPphA (Thermosynechococcus vestitus BP-1; R13S) (protein) MDVAGLTDCGLISKSNQDAFYIDEKHQRFFIVADGMGGHAGGEEASRLAVDHIRQYLETHLEDLQHDPVTLLRQAFLAANHAIVEQQRQNSARADMGTTAVVILLDEKGDRAWCAHVGDSRIYRWRKDQLQQITSDHTWIAQAVQLGSLTIEQARQHPWRHVLSQCLGREDLSQIDIQPIDLEPGDRLLLCSDGLTEELTDDVISIYLSEPNVQKAAAALVDAAKTHGGRDNVTVVVISV
3. tPphA (Thermosynechococcus vestitus BP-1; R13N) (protein) MDVAGLTDCGLINKSNQDAFYIDEKHQRFFIVADGMGGHAGGEEASRLAVDHIRQYLETHLEDLQHDPVTLLRQAFLAANHAIVEQQRQNSARADMGTTAVVILLDEKGDRAWCAHVGDSRIYRWRKDQLQQITSDHTWIAQAVQLGSLTIEQARQHPWRHVLSQCLGREDLSQIDIQPIDLEPGDRLLLCSDGLTEELTDDVISIYLSEPNVQKAAAALVDAAKTHGGRDNVTVVVISV

1: 2120; 2: 275; 3: 171

List kcat/Km for every entry below, keeping the order given.
1. tPphA (Thermosynechococcus vestitus BP-1; R13A) (protein) MDVAGLTDCGLIAKSNQDAFYIDEKHQRFFIVADGMGGHAGGEEASRLAVDHIRQYLETHLEDLQHDPVTLLRQAFLAANHAIVEQQRQNSARADMGTTAVVILLDEKGDRAWCAHVGDSRIYRWRKDQLQQITSDHTWIAQAVQLGSLTIEQARQHPWRHVLSQCLGREDLSQIDIQPIDLEPGDRLLLCSDGLTEELTDDVISIYLSEPNVQKAAAALVDAAKTHGGRDNVTVVVISV
2. tPphA (Thermosynechococcus vestitus BP-1; R13C) (protein) MDVAGLTDCGLICKSNQDAFYIDEKHQRFFIVADGMGGHAGGEEASRLAVDHIRQYLETHLEDLQHDPVTLLRQAFLAANHAIVEQQRQNSARADMGTTAVVILLDEKGDRAWCAHVGDSRIYRWRKDQLQQITSDHTWIAQAVQLGSLTIEQARQHPWRHVLSQCLGREDLSQIDIQPIDLEPGDRLLLCSDGLTEELTDDVISIYLSEPNVQKAAAALVDAAKTHGGRDNVTVVVISV

1. 305
2. 185
